Source: PubChem BioAssay (NCI)

# method: NCI Yeast Anticancer Drug Screen. Data for the bub3 strain (AID 167)
# assay-context: S. cerevisiae bub3 mutant strain, at 5.0 µM (retest, dose inferred, filed as 0.5), active compounds read high
The panel holds about 79,000 compounds, 15% with a hit somewhere; the sample as a whole holds those more often.
Attribute: growth inhibition
Report the figure in % without appending any unit label.

1) CCCCCCCCCCCCCCCCCCOP(=O)([O-])OC1CC[N+](C)(C)CC1 :: 97
2) CCOC(=O)c1cnc(SCc2ccc(Cl)cc2Cl)nc1Cl :: 0
3) CN(C)CCC1(C2=CCCC2)CC/C(=C\c2ccccc2Cl)C1=O (stereo not given) :: 19
4) CCN(CC)CCOC(=O)c1ccc(N=Nc2cc(Cl)c(C)cc2O)cc1 :: 58

# next compound below
Asked: Given `c1cc[c]([Sn]([NH]c2ncnc3[nH]cnc23)([NH]c2ncnc3[nH]cnc23)[c]2ccccc2)cc1` , state its recorded growth inhibition.
Given back: -4
